Target: NMDA receptor glycine site (Homo sapiens, UniProt Q05586)
Construct: Human brain membranes were obtained from Analytical Biological Services Inc; tissue Analytical Biological Services Inc
Assay: Test A: Inhibition of binding of [3H]-MDL105,519, human brain membranes

>  <Compound>
Cc1ccc(-n2nc(O)c3nc4cc(Cl)ccc4c(O)c3c2=O)c(Cl)c1 [compound of the invention]

>  <Ki [nM]>
50

$$$$

====

Target: NMDA receptor glycine site (Rattus norvegicus, UniProt P35439)
Construct: The rat brain membranes used in the experiments were obtained from Analytical Biological Services Inc; tissue Analytical Biological Services Inc; host or cells: rat brain (cerebral cortex and hippocampus) membranes
Assay: Test A: Inhibition of binding of [3H]-MDL105,519, rat brain membranes
Details: 1.2 nM [3H]MDL105,519
pKi: −log10 of the molar value.
Experimental endpoint: pKi

>  <Structure notation>
Cc1ccc(-n2nc(O)c3nc4cc(Cl)ccc4c(O)c3c2=O)c(Cl)c1

>  <Experimental endpoint>
pKi

>  <Reported>
7.25

$$$$
